Target: FGF-1 (Homo sapiens, UniProt P05230)
Sequence (P05230 whole entry): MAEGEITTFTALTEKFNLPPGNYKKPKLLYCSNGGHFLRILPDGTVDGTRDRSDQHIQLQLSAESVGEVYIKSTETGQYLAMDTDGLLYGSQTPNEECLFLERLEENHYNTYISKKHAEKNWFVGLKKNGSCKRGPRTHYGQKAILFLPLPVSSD
Assay: FGF-1 induced sprouting of HUVEC, spheroid-based cellular angiogenesis assay
Details: FGF-1 25 ng/mL preincubated with compound, 24 h
Text: Aim of this in vitro method is to assess compounds effects on FGF-2, FGF-1, or VEGF-A induced sprouting of human umbilical vein endothelial cells (HUVEC) in the spheroid-based cellular angiogenesis assay. […] IC50 values determined for the tested compounds are expressed in microM [μM] and the values for the inhibition of FGF-1, FGF2 and VEGF-A induced growth (sprouting) are listed after each compound in the examples after chemical characterization. […]
Please provide measured pIC50 for the entries that follow.
pIC50 here: minus log base 10 of the concentration, concentration in moles per litre.

stdin: Tell me the measured pIC50 of O=C(O)Cc1cccc(NC(=O)c2cc(O)c(C(=O)O)cc2O)c1 [Ia-033a] , please.
stdout: 4.22

stdin: // pIC50 lookup, key: O=C(O)c1cc(O)c(C(=O)Nc2ccc(S(=O)(=O)O)cc2)cc1O [Ia-003c]
stdout: 4.46

stdin: What does the record list as pIC50 for O=C(O)c1cc(O)c(CSCc2cc(O)c(C(=O)O)cc2O)cc1O [IIIc-058a] ?
stdout: 4.92

stdin: Which measured pIC50 value corresponds to CC(=O)N(Cc1cc(O)c(C(=O)O)cc1O)Cc1cc(O)c(C(=O)O)cc1O [IIIc-057a] ?
stdout: 4.06

stdin: Report pIC50 for O=C(O)c1cc(O)c(C(=O)Nc2ccccc2-c2nnn[nH]2)cc1O [Ia-001a-Tz] please.
stdout: 5.21

###

system: GM-CSF; test: Cytokine release after LPS induction on human whole blood: GM-CSF; format: cell-based; conditions: Homo sapiens, 18 h, read-out: Whole Blood: GM-CSF IC50
Recorded endpoint: IC50

stdin: Given the entry O=C(O)c1cc(NC(=O)c2cc(O)c(C(=O)Nc3ccccc3-c3nnn[nH]3)cc2O)ccc1O [Ic-001a-Tz/004a] , report its measured IC50.
stdout: 3.4 µM

###

tested on: GM-CSF; experiment: Cytokine release after LPS induction on human whole blood: GM-CSF; format: cell-based; conditions: human whole blood, inhibition of LPS induced inflammation; read-out: IC50 GM-CSF
Assign IC50 to each entry below.
Report only the number, with the unit µM understood.

stdin: Need IC50, item O=C(O)c1cc(O)cc(CS(=O)(=O)Cc2cc(O)cc(C(=O)O)c2O)c1O [IVc-059a]
stdout: 100

stdin: Reported IC50, compound O=C(O)Cc1cc(O)c(C(=O)Nc2c(C(=O)O)cccc2C(=O)O)cc1O [IIIa-013a] : ____
stdout: 27.8

stdin: Field request: IC50 | item: O=C(O)c1cc(O)cc(CSCc2cc(O)cc(C(=O)O)c2O)c1O [IVc-058a]
stdout: 100

stdin: Look at this compound and give its reported IC50. CC(=O)N(Cc1cc(O)c(C(=O)O)cc1O)Cc1cc(O)c(C(=O)O)cc1O [IIIc-057a]
stdout: 100

stdin: Looking for the measured IC50 of O=C(O)Cc1cc(O)c(C(=O)Nc2ccccc2-c2nnn[nH]2)cc1O , can you help?
stdout: 100

stdin: Dear colleague, I am looking for the recorded IC50 of the following compound: O=C(O)c1cc(O)c(C(=O)Nc2ccccc2S(=O)(=O)O)cc1O [Ia-001c]
stdout: 100

stdin: I'd like to know its IC50. The compound in question is O=C(O)c1cc(NC(=O)c2cc(O)c(C(=O)Nc3ccc(O)c(C(=O)O)c3)cc2O)ccc1O [Ic-007a]
stdout: 100

stdin: Bench note: what IC50 did CCOC(=O)c1cc(NC(=O)c2cc(O)c(C(=O)OCC)cc2O)cc(NC(=O)c2cc(O)c(C(=O)OCC)cc2O)c1 [Ib-010a-E3] show?
stdout: 100

stdin: What value of IC50 has been reported for the following compound? COC(=O)c1cc(OC(C)=O)cc(CS(=O)(=O)Cc2cc(OC(C)=O)cc(C(=O)OC)c2OC(C)=O)c1OC(C)=O [IVc-059a-E2-A4]
stdout: 1.83

stdin: Which IC50 value is on record for O=C(O)c1cc(NC(=O)c2cc(O)c(C(=O)O)cc2O)cc(C(=O)O)c1 [Ia-015a] ?
stdout: 2.76
